# target.under.test: the eight SFK SH2 domains
# protocol.description: fluorescence polarisation
Non-standard residues stand in square brackets, D forms with d. Primed or numbered codes have the meaning given here. No end group written: not given here. pY = N[C@@H](Cc1ccc(OP(=O)(O)O)cc1)C(=O)O; FITC′ = not defined here
property.name: Kd

Find the recorded Kd belonging to EPQ[pY]EEIPIYLK-{FITC′} [EPQp…-(FITC)] and report it.
310 to 675 nM
